B1: TRIM39 (parent)
chain: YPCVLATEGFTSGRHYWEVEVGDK

variants of: B1; test: protein stability index of a GFP-peptide fusion (GPS, HEK-293T) (PSI 1-6); higher = more stable; settings: c terminus: a fixed tail appended;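 also: lentivirally expressed fusions sorted by FACS into six bins by GFP to DsRed ratio, PSI derived from sequencing read proportions per bin multiplied by bin number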
Collected protein stability index values appear next to each entry.
reportedProperty: protein stability index

[
  {
    "mutationSpec": "K24V",
    "reportedProperty": "protein stability index",
    "observedResult": 1.96
  },
  {
    "mutationSpec": "T7L",
    "reportedProperty": "protein stability index",
    "observedResult": 1.98
  },
  {
    "mutationSpec": "C3S",
    "reportedProperty": "protein stability index",
    "observedResult": 2
  },
  {
    "mutationSpec": "V19A",
    "reportedProperty": "protein stability index",
    "observedResult": 1.96
  },
  {
    "mutationSpec": "E20D",
    "reportedProperty": "protein stability index",
    "observedResult": 1.98
  },
  {
    "mutationSpec": "V19W",
    "reportedProperty": "protein stability index",
    "observedResult": 2.21
  },
  {
    "mutationSpec": "F10H",
    "reportedProperty": "protein stability index",
    "observedResult": 1.86
  },
  {
    "mutationSpec": "V21L",
    "reportedProperty": "protein stability index",
    "observedResult": 1.57
  },
  {
    "mutationSpec": "Y1N",
    "reportedProperty": "protein stability index",
    "observedResult": 3.76
  },
  {
    "mutationSpec": "W17V",
    "reportedProperty": "protein stability index",
    "observedResult": 2.44
  },
  {
    "mutationSpec": "C3F",
    "reportedProperty": "protein stability index",
    "observedResult": 1.86
  }
]
